From: PubChem BioAssay

# System: XIP peptide (Xip251-270)
# testSummary: compounds binding XIP fragment 251-270 – biochemical, small-molecule microarray, fluorescence 635/667 nm, 0.5 µg/mL protein, primary screen (AID 1183)
# studyConditions: fluorescence 635 nm, higher = more signal
Label scheme for composite z-score: lower than 0.6 is condition not met, 0.6 and above is condition met.

[
  {
    "molecule": "COCCOC(=O)N1C(=O)[C@@]2(c3ccccc31)[C@H](C(=O)N1CCCCCCC1)[C@H]1C(=O)O[C@H](c3ccccc3)[C@H](c3ccccc3)N1[C@@H]2c1ccccc1OCCO",
    "class": "condition met"
  },
  {
    "molecule": "COCCCNC(=O)[C@@]1(Sc2ccc(C)cc2)CC(=O)N(Cc2ccccc2)[C@@H]1c1ccc(CO)cc1",
    "class": "condition met"
  },
  {
    "molecule": "O=C(N1CCCCC1)[C@]1(CCS(=O)(=O)c2ccccc2)N=C(c2ccc(OCCCO)cc2)O[C@@H]1c1ccccc1",
    "class": "condition met"
  },
  {
    "molecule": "CO[C@H]1O[C@H](CO)[C@@H](OC(=O)Nc2ccc(C(F)(F)F)cc2)[C@H](OC(=O)Nc2ccccc2)[C@@H]1OC(=O)Nc1ccccc1",
    "class": "condition met"
  },
  {
    "molecule": "CC(C)C(CO)N1C(=O)[C@@H]2[C@H]3C(=O)OCC=C[C@H]3OC23C=CCN(c2ccc4ccccc4c2)C(=O)[C@@H]13 (stereo partly specified)",
    "class": "condition not met"
  },
  {
    "molecule": "O=C1OCC=C[C@H]2OC34C=CCN(c5ccc(Cl)cc5)C(=O)[C@H]3N(CCCO)C(=O)[C@@H]4[C@@H]12 (stereo partly specified)",
    "class": "condition not met"
  }
]

* * *

# testSummary: compound effects on multiple myeloma cell viability – MM1S, calcein-AM fluorescence, 48 h, basal, profiling panel (AID 1165);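 note: viability of MM1S multiple myeloma cells under basal unstimulated conditions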
# studyConditions: higher = more signal
valueType: z-score

[
  {
    "compound": "COc1ccc([Si](C)(C)[C@H]2[C@H](CC(=O)N(CCO)Cc3ccccc3)O[C@@]3(C(=O)N(Cc4cccc(N5C(=O)c6cccc7cccc5c67)c4)c4ccccc43)[C@@H]2C)cc1",
    "valueType": "z-score",
    "observedResult": -0.883
  },
  {
    "compound": "COC(=O)[C@@]1(Cc2ccc(F)cc2)[C@H]2c3cc(C(=O)N(C)C)n(CCCNc4ccc(C(F)(F)F)cc4Cl)c3C[C@H]2CN1C(=O)c1ccccc1",
    "valueType": "z-score",
    "observedResult": -0.84
  },
  {
    "compound": "CC(C)N1C(=O)c2ccccc2[C@](C)(C(=O)NCCCN(C)C)[C@@H]1c1ccc(CO)cc1",
    "valueType": "z-score",
    "observedResult": -0.0937
  },
  {
    "compound": "COCCn1c(C(=O)N2CCCC2)cc2c1C[C@H]1CN(C(=O)c3ccccc3)[C@@](Cc3ccc(OC)cc3)(C(=O)OC)[C@@H]21",
    "valueType": "z-score",
    "observedResult": 0.776
  },
  {
    "compound": "CCN(CC)c1ccc(N2CC=CC34O[C@@H]5/C=C\\CCCOC(=O)C5[C@H]3C(=O)N(CCCO)[C@@H]4C2=O)cc1 (stereo not given in full)",
    "valueType": "z-score",
    "observedResult": 0.794
  },
  {
    "compound": "[N-]=[N+]=Nc1ccccc1C[C@]1(C(=O)N2CCCCC2)N=C(c2ccc(OCCCO)cc2)O[C@H]1c1ccccc1N=[N+]=[N-]",
    "valueType": "z-score",
    "observedResult": -3.54
  },
  {
    "compound": "[N-]=[N+]=NCc1ccccc1C[C@]1(C(=O)N2CCOCC2)N=C(c2ccc(OCCCO)cc2)O[C@H]1c1ccccc1",
    "valueType": "z-score",
    "observedResult": -2.06
  },
  {
    "compound": "[N-]=[N+]=NCc1ccccc1[C@H]1OC(c2ccc(OCCCO)cc2)=N[C@@]1(Cc1ccccc1)C(=O)O",
    "valueType": "z-score",
    "observedResult": 0.791
  },
  {
    "compound": "Cc1ccc(S[C@]2(C(=O)NCC(C)C)CC(=O)N(Cc3ccccc3)[C@@H]2c2ccc(CO)cc2)cc1",
    "valueType": "z-score",
    "observedResult": -1.32
  },
  {
    "compound": "CO[C@H]1O[C@H](CO)[C@@H](OC(=O)Nc2cccc(F)c2)[C@H](OC(=O)Nc2ccccc2-c2ccccc2)[C@@H]1OC(=O)Nc1ccccc1-c1ccccc1",
    "valueType": "z-score",
    "observedResult": -2.28
  }
]
